src = ChEMBL document CHEMBL4118215

experiment: Volume of distribution in guinea pig at 1 mg/kg, iv by LC-MS/MS analysis; format: ADME, organism-based, Cavia porcellus; conditions: in vivo
Listing of entries alongside the reported Vd.
Could you give me the number in L/kg? Just the number is fine.

> print(dat)
                        structure.as.smiles  experimental.readout  obs.value
1  O=S(=O)(N1CCN(c2ccc(/C=C/c3cc(F)cc(-c4ccncc4)c3)cc2)CC1)C(F)(F)F                    Vd        9.1

The molecule identified as `CCS(=O)(=O)N1CCN(c2ccc(/C=C/c3cc(F)cc(-c4ccncc4)c3)cc2)CC1` registered its Vd at 4.05

The reported Vd of the molecule `CC(=O)N1CCN(c2ccc(/C=C/c3cc(F)cc(-c4ccncc4)c3)cc2)CC1` was 14.8
